Record form. Attribute: EC50 nM H1650 (in vitro tumor cell cytotoxicity). Fill in for each entry.
- Measured On: T1, Human full length B7-H3 (human, UniProt Q5ZPR3 29-534)
- T1 sequence: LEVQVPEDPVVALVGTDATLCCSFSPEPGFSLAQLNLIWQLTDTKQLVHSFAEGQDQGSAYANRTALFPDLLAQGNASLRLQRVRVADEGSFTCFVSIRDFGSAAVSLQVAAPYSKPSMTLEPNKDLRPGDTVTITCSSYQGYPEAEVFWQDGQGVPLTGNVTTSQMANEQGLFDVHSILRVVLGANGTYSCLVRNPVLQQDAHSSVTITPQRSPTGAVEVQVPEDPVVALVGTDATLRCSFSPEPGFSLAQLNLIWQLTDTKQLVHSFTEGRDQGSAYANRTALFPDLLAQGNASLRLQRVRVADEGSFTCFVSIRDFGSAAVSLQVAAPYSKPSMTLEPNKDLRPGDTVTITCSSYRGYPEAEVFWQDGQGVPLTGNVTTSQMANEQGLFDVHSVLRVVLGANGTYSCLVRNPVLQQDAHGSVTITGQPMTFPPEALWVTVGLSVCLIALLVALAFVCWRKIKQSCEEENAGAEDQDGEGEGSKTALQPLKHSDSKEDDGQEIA
- Method Summary: cell-based or functional assay
Please give a number only; it is taken to be in nM.

Ask: // Input: huAb13v1-YG (antibody, human IgG1, kappa, L234A L235A, V domains shown, synthon YG on interchain Cys) VH: EVQLQESGPGLVKPSETLSLTCAVTGYSITSGYSWHWIRQFPGNGLEWMGYIHSSGSTNYNPSLKSRISISRDTSKNQFFLKLSSVTAADTAVYYCAGYDDYFEYWGQGTTVTVSS VL: DIQMTQSPSSLSASVGDRVTITCKASQNVGFNVAWYQQKPGKSPKALIYSASYRYSGVPSRFSGSGSGTDFTLTISSLQPEDFAEYFCQQYNWYPFTFGQGTKLEIKR . Output its EC50 nM H1650 (in vitro tumor cell cytotoxicity) only.
Reply: 0.33

Ask: // Input: huAb3v2.5-KZ (antibody, human IgG1, kappa, L234A L235A, V domains shown, synthon KZ on interchain Cys) VH: EVQLVQSGAEVKKPGSSVKVSCKASGYTFSSYWMHWVRQAPGQGLEWIGLIHPESGSTNYNEMFKNRATLTVDRSTSTAYMELSSLRSEDTAVYYCAGGGRLYFDYWGQGTTVTVSS VL: DIVMTQSPLSLPVTPGEPASISCRSSQSLVHSNRDTYLRWYLQKPGQSPQLLIYKVSNRFSGVPDRFSGSGSGTDFTLKISRVEAEDVGVYYCSQSTHVPYTFGGGTKVEIKR . Output its EC50 nM H1650 (in vitro tumor cell cytotoxicity) only.
Reply: 0.87

Ask: // Input: huAb13v1-ZT (antibody, human IgG1, kappa, L234A L235A, V domains shown, synthon ZT on interchain Cys) VH: EVQLQESGPGLVKPSETLSLTCAVTGYSITSGYSWHWIRQFPGNGLEWMGYIHSSGSTNYNPSLKSRISISRDTSKNQFFLKLSSVTAADTAVYYCAGYDDYFEYWGQGTTVTVSS VL: DIQMTQSPSSLSASVGDRVTITCKASQNVGFNVAWYQQKPGKSPKALIYSASYRYSGVPSRFSGSGSGTDFTLTISSLQPEDFAEYFCQQYNWYPFTFGQGTKLEIKR . Output its EC50 nM H1650 (in vitro tumor cell cytotoxicity) only.
Reply: 0.3
